- assay.target: PPARγ (Homo sapiens, UniProt P37231)
- Construct: expressed in transfected cells; host or cells: CV-1 cells (ATCC CCL-70)
- Sequence (P37231 whole entry, species assumed): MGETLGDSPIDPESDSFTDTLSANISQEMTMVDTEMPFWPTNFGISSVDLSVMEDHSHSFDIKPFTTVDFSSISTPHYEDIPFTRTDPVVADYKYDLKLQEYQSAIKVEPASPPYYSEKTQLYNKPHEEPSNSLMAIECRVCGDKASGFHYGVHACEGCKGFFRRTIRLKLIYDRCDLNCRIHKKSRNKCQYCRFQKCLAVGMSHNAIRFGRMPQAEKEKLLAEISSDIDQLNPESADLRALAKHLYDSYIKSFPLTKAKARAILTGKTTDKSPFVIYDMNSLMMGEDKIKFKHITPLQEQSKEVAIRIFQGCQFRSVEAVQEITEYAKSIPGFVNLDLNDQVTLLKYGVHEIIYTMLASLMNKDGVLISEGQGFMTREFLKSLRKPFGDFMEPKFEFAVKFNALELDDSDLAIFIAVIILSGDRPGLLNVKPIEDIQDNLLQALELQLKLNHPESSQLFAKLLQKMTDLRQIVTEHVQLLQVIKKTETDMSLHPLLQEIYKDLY
- experiment.summary: PPARγ transactivation assay (luciferase reporter) in transfected CV-1 cells
- Format: cell-based
- condition.info: @ 10 μM
Entries and their measured PPAR-γ Fold activation follow.
measure: PPAR-γ Fold activation (x)

[[record]]
molecule = "COC(=O)c1cc(CC2SC(=O)NC2=O)ccc1OCCn1c(CCCCC2CCCCC2)nc2ccccc21 (stereo not shown)"
measure = "PPAR-γ Fold activation"
test_result = 34

[[record]]
molecule = "CCCc1nc2c(C)cc(Br)cc2n1CCOc1ccc(CC2SC(=O)NC2=O)cc1C(=O)O (stereo not shown)"
measure = "PPAR-γ Fold activation"
test_result = 15.5

[[record]]
molecule = "CCCc1nc2c(C)cc(Br)cc2n1CCOc1ccc(CC2SC(=O)NC2=O)cc1C(=O)OC (stereo not shown)"
measure = "PPAR-γ Fold activation"
test_result = 41

[[record]]
molecule = "CCCc1nc2c(C)cc(-c3nc4ccccc4n3C)cc2n1Cc1ccc(-c2ccc(C(=O)OC)cc2C(=O)OC)cc1"
measure = "PPAR-γ Fold activation"
test_result = 11


Just for reference, patent US20050020654A1 is where these values come from.
